Tested on: chymotrypsin
assay-method-text: Enzymatic
Format: in vitro ADME
condition-description: chymotrypsin in PBS, pH 7.4
Where a SMILES comes first, the peptide text is derived from it. [ ]: non-standard residue; d: D form. Cha = N[C@@H](CC1CCCCC1)C(=O)O

molecule: CC[C@H](C)[C@H](NC(=O)[C@H](Cc1ccccc1)NC(=O)[C@H](CC(=O)O)NC(=O)[C@H](CCCNC(=N)N)NC(=O)[C@H](Cc1ccccc1)NC(=O)[C@H](Cc1ccccc1)NC(=O)[C@H](CCCCN)NC(=O)[C@H](CO)NC(=O)[C@H](CC(C)C)NC(=O)[C@H](CCCNC(=N)N)NC(=O)[C@H](CCSC)NC(=O)[C@@H](N)CCC(=O)O)C(=O)N[C@@H](CC(C)C)C(=O)N[C@@H](CCC(N)=O)C(=O)N[C@@H](CCCNC(=N)N)C(=O)N[C@@H](CCCCN)C(=O)N[C@@H](CCCCN)C(=O)O [CSP1, reference compound]
measurement-unit: h
half-life at 0.33 mM: 1

molecule: CC[C@H](C)[C@H](NC(=O)[C@H](Cc1ccccc1)NC(=O)[C@H](CC(=O)O)NC(=O)[C@H](CCCNC(=N)N)NC(=O)[C@H](Cc1ccccc1)NC(=O)[C@H](CC1CCCCC1)NC(=O)[C@H](CCCCN)NC(=O)[C@H](CO)NC(=O)[C@H](CC(C)C)NC(=O)[C@H](CCCNC(=N)N)NC(=O)[C@H](CCSC)NC(=O)[C@H](C)N)C(=O)N[C@@H](CC(C)C)C(=O)N[C@@H](CCC(N)=O)C(=O)N[C@@H](CCCNC(=N)N)C(=O)N[C@@H](CCCCN)C(=O)N[C@@H](CCCCN)C(=O)O [CSP1-E1A/F7Cha] (H-AMRLSK[Cha]FRDFILQRKK-OH)
measurement-unit: h
half-life at 0.33 mM: 4
